src = patent US20240301052A1

Biological target: T1, human SLC34A2 (human, UniProt O95436 1-690)
T1 construct: whole, on cells; also called human solute carrier 34 A2; NaPi2b
T1 sequence (looked up): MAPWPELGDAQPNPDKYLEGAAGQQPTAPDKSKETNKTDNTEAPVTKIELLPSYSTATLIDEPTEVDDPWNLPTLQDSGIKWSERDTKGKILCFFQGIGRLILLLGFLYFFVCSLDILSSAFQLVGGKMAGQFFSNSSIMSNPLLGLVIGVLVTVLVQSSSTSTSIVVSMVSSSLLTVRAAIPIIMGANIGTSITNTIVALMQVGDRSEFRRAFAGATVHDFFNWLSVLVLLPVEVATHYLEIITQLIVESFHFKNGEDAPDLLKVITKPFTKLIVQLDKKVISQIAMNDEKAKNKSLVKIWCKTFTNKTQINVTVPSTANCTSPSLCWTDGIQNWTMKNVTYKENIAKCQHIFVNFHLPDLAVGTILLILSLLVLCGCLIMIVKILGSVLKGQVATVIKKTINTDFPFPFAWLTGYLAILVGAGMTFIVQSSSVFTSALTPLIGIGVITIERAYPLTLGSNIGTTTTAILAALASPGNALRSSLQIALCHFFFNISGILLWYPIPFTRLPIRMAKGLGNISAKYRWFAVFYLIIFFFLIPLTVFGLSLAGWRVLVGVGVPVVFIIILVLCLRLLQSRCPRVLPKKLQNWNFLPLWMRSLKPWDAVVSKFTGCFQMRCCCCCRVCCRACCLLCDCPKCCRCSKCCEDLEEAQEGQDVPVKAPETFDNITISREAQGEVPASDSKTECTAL
Assay: FACS, RMG-1 cells
readout: EC50 (nM)
Write the number in nM without appending the unit.

Past entries and their recorded results:
INSERT INTO results (binder, observed_measurement) VALUES
  ('xi71F7D4 hIgG1 (antibody, V domains shown, chimeric, hIgG1) VH: DVKLVESGGDLVKLGGSLKLSCAASGFTFSNYYMSWVRQTPEKRLELVAVINSNGGTTYYPDNMKGRFTISRDNAKNTLYLQTSSLKSEDTALYYCGRHEHYYGTNIAWFAYWGQGTLVTVSA VL: DIVMTQSHKFMSTSVGDRVSITCKASQDVTTAVAWYQQKPGQSPKLLIYWASTRHTGVPDRFTGSGSGTDHTLTISSVQAEDLALYYCQQHYSTPVTFGGGTKLEIK', 8.36),
  ('xi94E9B12 hIgG1 (antibody, V domains shown, chimeric, hIgG1) VH: QVQLQQPGAELVKPGASVKMSCKASGYTFTSYNMQWVKQTYGQGLEWIGAISPGSGETSYNQNFKVKATLTADKISSTAYMQLSSLTSEDSAVYYCARAARAEGWFAYWGQGTLVTVSA VL: DIVMTQSHKFMSTSVGDRVSITCKASQDVGHAVVWYQQKPGQFPKLLIYWASTRHAGVPDRFTGSGSGTDFTLTISNVQSEDLADYFCQQFRSIPLTFGSGTKLEIK', 9.05),
  ('xi55E5B6D12 hIgG1 (antibody, V domains shown, chimeric, hIgG1) VH: QVQLQQSGAEVVNSGASVKMSCKASGYTFTTYNMHWVKQTPGQGLEWIGAIYPGNGDTSYNQRFKGKATFTADRSSGTAYMQLSSLPSEDSAVYYCARGGYANGALVDWGQGTLVTVSA VL: DILMTQSHKFMSTSVGDRVTITCKASQDVGTAVAWYQNKPGQSPKLLIFWTSTRHTGVPDRFTGSGSGTDFTLTISNVQSEDLADYFCQQYSRQPLTFGPGTKLEIK', 3.48);

Read off the recorded EC50 for xi63A11D5B4 hIgG1 (antibody, V domains shown, chimeric, hIgG1) VH: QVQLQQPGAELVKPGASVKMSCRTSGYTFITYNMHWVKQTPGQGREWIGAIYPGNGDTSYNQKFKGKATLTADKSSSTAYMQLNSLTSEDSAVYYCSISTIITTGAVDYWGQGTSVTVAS VL: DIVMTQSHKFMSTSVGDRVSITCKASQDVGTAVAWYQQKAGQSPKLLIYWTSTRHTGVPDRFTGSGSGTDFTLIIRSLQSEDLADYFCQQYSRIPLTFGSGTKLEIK 5.32

Read off the recorded EC50 for xi84F2D10 hIgG1 (antibody, V domains shown, chimeric, hIgG1) VH: QVQLQQPGAVLVKPGASVKMSCKASGYTFTSYNLHWVKQTPGQGLEWIGAIYPGNGDTSYIQKFKGKATLTADKSSSTAYMQLSSLTSEDSAVYYCARGKYGNYEGFAYWGQGTLVTVSA VL: DILLTQSPAILSVSPGERVSISCRASQSIGTSIYWYQQRRNGSPRLLIKFASESISGIPSRFSGSGSGTDFTLSINSVESEDIADYYCQQNNRWPFTFGSGTKLEIK 4.33

Read off the recorded EC50 for xi69B11D8 hIgG1 (antibody, V domains shown, chimeric, hIgG1) VH: EVQLQQSGPELVKPGAAVKISCKTSGYTFTDYTMHWVRQSHGKSLEWIGGIHPNNGGTGYNQKLRGKATLTVDKSSSTAYMELRSLTSDDSAVYYCARGRESDGWFTYWGQGTLVTFSA VL: DVHMTQTTSSLSASLGDRVTITCSASQGIGNSLNWYQQQPDGTVKLLIYYTSRLHSGVPSRFSGSGSGTDYSLTISNLEPEDLATYYCQQYSRFPPTFGGGTKLEIK 1.7

Read off the recorded EC50 for xi62G10E4G8 hIgG1 (antibody, V domains shown, chimeric, hIgG1) VH: QVQLQQSGAEVVKPGASVKMSCKASGYTFPSYITHWVKQTPGQGLEWIGAIYPGNGDTSYIQKFKGKATLTADKSSSTAYMQLSSLTSEDSAVYYCARGTYGTSAWFTYWGQGTLVTVSA VL: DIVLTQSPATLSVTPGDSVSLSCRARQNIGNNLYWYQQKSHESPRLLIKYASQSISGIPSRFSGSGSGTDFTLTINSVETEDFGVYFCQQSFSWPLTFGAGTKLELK 3.65

Read off the recorded EC50 for xi78D1B10 hIgG1 (antibody, V domains shown, chimeric, hIgG1) VH: QVQLQQPGADLVKPGASVKLSCKASGFTFTSYIIHWVKQTPGQGLEWIGAIYPGNGDTSYIQKFKGRATLTADKSSTTAYMQLGGLTSEDSAVYYCARGTYGSSAWFVYWGQGTLVTVSA VL: DIVLTQSPATLSVTPGDSVSLSCRASQSISNNLYWYQQKSHESPRLLIKYASQSISGIPSRFRGSGSGTDFTLSINSVETEDFGMYFCQQSNSWPLTFGAGTKLELK 2.1
